- target_or_system: Cannabinoid receptor 1 (Homo sapiens, UniProt P21554)
- Sequence (P21554 whole entry): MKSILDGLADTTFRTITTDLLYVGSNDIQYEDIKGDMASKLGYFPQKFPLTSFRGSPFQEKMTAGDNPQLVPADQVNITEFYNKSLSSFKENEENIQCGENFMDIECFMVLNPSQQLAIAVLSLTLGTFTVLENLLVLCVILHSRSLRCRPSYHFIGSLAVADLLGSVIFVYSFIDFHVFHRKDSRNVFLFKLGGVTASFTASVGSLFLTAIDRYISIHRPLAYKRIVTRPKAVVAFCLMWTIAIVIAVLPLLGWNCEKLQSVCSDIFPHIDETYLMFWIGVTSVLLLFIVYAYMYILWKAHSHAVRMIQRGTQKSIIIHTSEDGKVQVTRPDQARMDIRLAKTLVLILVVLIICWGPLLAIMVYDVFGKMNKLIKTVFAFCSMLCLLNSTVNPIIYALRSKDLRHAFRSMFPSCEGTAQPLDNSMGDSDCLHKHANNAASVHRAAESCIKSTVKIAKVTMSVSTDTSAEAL
- assay_info: Binding affinity to human CB1 receptor expressed in CHO cells after 90 mins by scintillation counting
- Type: cell-based
quantity_kind: Kd (nM)
Answers are plain numbers, in nM.

Entry [3H]c1cc(-c2cnn3c(=O)n(Cc4ccc(C(F)(F)F)nc4[3H])nc3c2-c2ccncc2)ccc1Cl — recorded Kd = 3.95

---

- assay_info: Protein binding in human
- Assay type: ADME
quantity_kind: fraction unbound
Give bare numbers.

Entry O=c1n(Cc2ccc(C(F)(F)F)nc2)nc2c(-c3ccncc3)c(-c3ccc(Cl)cc3)cnn12 — recorded fraction unbound = 0.05
